Assay: qHTS assay to identify small molecule antagonists of the estrogen receptor alpha (ER-alpha) signaling pathway using the BG1 cell line (AID 743080);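 further: BG1 cells stimulated with 17beta-estradiol alongside compound; on the % scale 0 is the no-effect control and ±100 the full control effect; nearly all actives have a fitted effect of over 25% in size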
Details: BG1Luc4E2 ERE-luciferase antagonist mode, luminescence; series mostly up to 70.3 µM
Results filed as inconclusive are left out. The source made the active and inactive calls. The call rests on the fitted dose curve.

compound	outcome
Cc1cc(C)cc([N+](=O)[O-])c1	inactive
O=S(=O)(O)CCO	inactive
CC(C)SCc1ccco1	inactive
CCN1CN(CC)CN(CC)C1	inactive
Cc1cccc(C(=O)O)c1[N+](=O)[O-]	inactive
O=C(Nc1cccc(C2=NCCN2)c1)Nc1cccc(C2=NCCN2)c1	inactive
C=CCOCC(O)CCl (stereo unspecified)	inactive
O=CN1CCOCC1	inactive
CCOC(=O)CCCCCCCCC(=O)OCC	inactive
F[Si-2](F)(F)(F)(F)F	inactive
CCCCCC(=O)OCC	inactive
CCC(C)N (stereo unspecified)	inactive
CCN(CCO)c1cccc(C)c1	inactive
COC(OC)C(C)c1ccccc1 (stereo unspecified)	inactive
OC(CCN1CCCCC1)(c1ccccc1)c1ccccc1	inactive
CC(=O)OC(C)c1ccccc1 (stereo unspecified)	inactive
CO[Si](CCCCl)(OC)OC	inactive
CCCCCCCCCCCCCC(=O)OC	inactive
CCS(=O)(=O)CCn1c([N+](=O)[O-])cnc1C	inactive
CCCCC(=O)N(C)C	inactive
OCCCCCCCl	inactive
CC(=O)OC(C(=O)c1ccccc1)c1ccccc1 (stereo unspecified)	inactive
CCCCCCCCOC(C)=O	inactive
C=CCOCC(CO)(COCC=C)COCC=C	inactive
CC(C)CCCC(C)CC=O (stereo unspecified)	inactive
CC(C)CCCCCCOC(=O)C1CCCCC1C(=O)OCCCCCCC(C)C (stereo unspecified)	inactive
Cc1nc2ccccc2c(=O)o1	inactive
C[C@H](CCC(=O)O)[C@H]1CC[C@H]2[C@@H]3[C@H](O)C[C@@H]4C[C@H](O)CC[C@]4(C)[C@H]3C[C@H](O)[C@]12C	inactive
CN(C)CCOCCN(C)CCO	inactive
FC(F)(F)/C(=N\OCC1OCCO1)c1ccc(Cl)cc1	inactive
Nc1cc(C(=O)O)ccc1Cl	inactive

###

Experiment: qHTS assay to identify small molecule agonists of the NFkB signaling pathway (AID 1159509); further: on the % scale 0 is the no-effect control and ±100 the full control effect
Details: NFkB-bla ME-180 cells, beta-lactamase FRET ratio, 5 h; series mostly up to 61 µM
Records with an inconclusive call do not appear. Activity calls are given as the source filed them. Calls follow the shape of the dose curve; as a rule, active = well fitted curve in the direction sought with a large enough effect in the signal ratio in the repeat runs (not every such curve was filed as active); inconclusive = weak or mixed curves, or a change in a side signal; inactive = no such curve, though single readings can be large or run the other way; the % refers to the signal ratio.
readout_kind: activation

1. CCCCCCCCCCC inactive
2. O=C(O)Cc1cccc(-c2cc(CCCCCCc3ccc(O[C@H]4O[C@H](CO)[C@@H](O)[C@H](O)[C@@H]4O)c(-c4cccc(CC(=O)O)c4)c3)ccc2O[C@H]2O[C@H](CO)[C@@H](O)[C@H](O)[C@@H]2O)c1 0.357% [at 0.628 µM] (inactive)
3. CCCCCC(=O)OCC inactive
4. Cn1c(=O)c2c(ncn2CC2OCCO2)n(C)c1=O inactive
5. O=S(=O)(O)CCO inactive
6. N#CCCOCCOCCC#N inactive

###

Assay: qHTS assay to identify small molecule agonists of the retinoic acid receptor (RAR) signaling pathway (AID 1159553); further: on the % scale 0 is the no-effect control and ±100 the full control effect
Conditions: C3RL4 RARE luciferase reporter, agonist, 6 h
Results filed as inconclusive are left out. Calls of active or inactive are those of the source. Calls follow the shape of the dose curve; as a rule, active = well fitted activation curve with a large enough effect in the repeat runs; inconclusive = weak or mixed curves, or effect the other way; inactive = no such curve, though single readings can be large or run the other way.

compound	outcome
CC(=O)c1ccc2c(c1)CCCC2	inactive
CCOC(=O)C(C)(C)C	inactive
COCCOCCOCCOC	inactive
CCC1Nc2cc(Cl)c(S(N)(=O)=O)cc2S(=O)(=O)N1 (configuration not stated)	inactive
CN[C@@H]1[C@H](O)[C@H](NC)[C@H]2O[C@@]3(O)C(=O)C[C@@H](C)O[C@H]3O[C@@H]2[C@H]1O	inactive
CCOC(=O)CCCCCCCCC(=O)OCC	inactive
c1ccc(CNc2ncnc3nc[nH]c23)cc1	inactive
C=CCOC(=O)c1ccc(C(=O)OCC=C)c(C(=O)OCC=C)c1	inactive
COc1ccc(NS(=O)(=O)c2ccc(N)cc2)nn1	inactive
CCC(CO)CO	inactive
CC1CCC(C(C)(C)S)C(=O)C1 (configuration not stated)	inactive
CCCOCCOCCOCCO	inactive
